Assay Overview: Single-dose PK in SD rats (IV/PO)
Design: species or system SD rat
Settings: both sexes, SD, rat, in vivo, po, 1 mg/kg
Metric Name: Cmax (ng/mL)
Return type: number; implicit unit ng/mL.

Provide only the value of recorded Cmax for C[C@H](Nc1ncnc(N)c1C#N)c1cc2ncc(Cl)n2nc1-c1ccccc1 [Amdizalisib]
115

----------
System Tested: OAT1 (Homo sapiens, UniProt Q4U2R8)
Sequence (Q4U2R8 1-563): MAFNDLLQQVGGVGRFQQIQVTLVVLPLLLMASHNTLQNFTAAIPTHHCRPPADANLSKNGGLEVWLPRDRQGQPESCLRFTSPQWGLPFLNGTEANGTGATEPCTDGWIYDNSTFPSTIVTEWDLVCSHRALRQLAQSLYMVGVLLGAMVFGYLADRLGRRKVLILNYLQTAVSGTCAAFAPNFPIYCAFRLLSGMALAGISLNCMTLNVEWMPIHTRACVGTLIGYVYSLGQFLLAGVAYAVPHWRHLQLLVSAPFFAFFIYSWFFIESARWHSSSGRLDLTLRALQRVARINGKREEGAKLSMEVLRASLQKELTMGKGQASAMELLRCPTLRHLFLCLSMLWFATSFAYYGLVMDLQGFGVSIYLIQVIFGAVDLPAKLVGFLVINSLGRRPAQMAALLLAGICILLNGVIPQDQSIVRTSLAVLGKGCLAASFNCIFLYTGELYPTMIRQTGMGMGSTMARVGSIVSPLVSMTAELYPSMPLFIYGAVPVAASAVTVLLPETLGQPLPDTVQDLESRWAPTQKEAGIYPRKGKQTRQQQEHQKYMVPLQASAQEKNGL
Assay Overview: in vitro
Settings: human, pH 7.4
Metric Name: inhibition at 2 min, 10 µM
Output should be the measured figure followed by the unit it is expressed in.

Provide only the value of recorded inhibition at 2 min, 10 µM for C[C@H](Nc1ncnc(N)c1C#N)c1cc2ncc(Cl)n2nc1-c1ccccc1 [Amdizalisib]
66.7%

meta.source: paper PMC11211886
